# Experiment Summary: protein stability index of a GFP-peptide fusion (GPS, HEK-293T) (PSI 1-6); higher = more stable;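 also: 24-mer peptide tiles fused after GFP, lentivirally expressed, FACS-sorted into six equal bins by GFP/DsRed ratio, decoded by Illumina sequencing, PSI is the read-weighted mean bin number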
# Conditions: treatment: MLN4924 1 uM, 8 h; c terminus: a fixed tail appended
Observation Type: protein stability index
Just the number.

# annotated cases, reported protein stability index shown
NAAHSLLSTNDKTIKLWKITERDK [PPP2R2C] ... 3.82
SHRSNLIRHQRIHTGEKPYTCHEC [ZNF263] ... 3.49
DKVIELHKSHRGMTPAEAEMHFLE [EPB41L3] ... 4.38
KSVMLQIAATELEKEESRREAEKQ [TNNI2] ... 5.25
DEASAATPPSSRRVWSPPRVHKVE [ZBTB22] ... 4.99
RKSLFDDKAVEIEELTYIIKQDIN [STX5] ... 2.76

Enquiry: Fill in protein stability index for record GLQAQILHCYRDRPHEVLLCSDLV [CHCHD6]
Return: 2.16

Enquiry: Identify measured protein stability index corresponding to IGCGNFGELRLGKNLYTNEYVAIK [CSNK1G3]
Return: 2.12

Enquiry: Provide one value: measured protein stability index of YQVAALQGDLASLRAELQGHHAEK [TNFSF13B]
Return: 3.88

Enquiry: Report protein stability index, nothing else, for this sequence: GEFRTGKTQICHTLAVTCQLPIDR [RAD51]
Return: 3.02

Enquiry: Please list protein stability index recorded for the sequence VVHWVQSIGLRDYAGNLHESGVHG [PPFIA4]
Return: 1.93

Enquiry: Indicate the recorded protein stability index value for this sequence: KHLARQLEEKDRVLKKQDAFYKEQ [CHCHD3]
Return: 4.57

###

# Experiment Summary: protein stability index of a GFP-peptide fusion (GPS, HEK-293T) (PSI 1-6); higher = more stable
# Conditions: treatment: DMSO; c terminus: a fixed tail appended
protein stability index of 5 or higher: Satisfied. Under 5: Not satisfied.

The examples below pair each entry with its known result.
PLQDFPNSISSDKEATVPCTEILT [MIA2] ... Not satisfied
PKPSGLEPGPAAYGLKPLTPNSKY [KCTD13] ... Not satisfied
VNAVRKLLIEGRSVNEHTEEGESL [ANKRD17] ... Not satisfied
EHGDQLLSIRCQHQEQVEDLTASH [MTUS2] ... Satisfied
LIVVTQSHLVIHNLFEGMIWFIVP [CDS2] ... Not satisfied
AEKVNQDMCMKVPDDPEHLAARRQ [CRYL1] ... Satisfied

Enquiry: Given the entry NRQCLCSAESMVEYGTCMCLVKGI [SPRY1] , answer whether its protein stability index meets or surpasses 5.
Return: Not satisfied

Enquiry: // inclusive: protein stability index at least 5? input: KDIVQTVRSRLEEAGIKVHDVRLN [TENT5C]
Return: Not satisfied

Enquiry: Is protein stability index for ANSAFAVDLFKQLCEKEPLGNVLF [SERPINB5] at or above 5?
Return: Not satisfied

###

# Experiment Summary: protein stability index of a GFP-peptide fusion (GPS, HEK-293T) (PSI 1-6); higher = more stable
# Conditions: treatment: DMSO; c terminus: a fixed tail appended
protein stability index by entry:
Form rule: numeric answer, no unit written next to it.

Past entries and their recorded results:
VISLLNEPNTFSPANVDASVMFRK [UBE2R2] ... 2.79
MTGTPKTQEGAKDLEVDMNKTEVT [ACSBG2] ... 5.64
ATLCLEFLLQNDANPSIRDKEGYN [ANKRD44] ... 2.61
MWPPDPDPDPDPEPAGGSRPGPAV [CMTM3] ... 5.02
WQLFLAHNIPLETIIPILQHLKYK [INTS3] ... 2.83
LSATIGSILRELDTSMDGTEPPQN [SERTAD3] ... 4.1

Enquiry: Please supply the value of reported protein stability index for the item DLSMDGLFGTIAYLPPERIREKSR [RIPK4]
Return: 3.58

Enquiry: Fill in protein stability index for record HNGKIYISGGVHNGEYVPWLYCYD [KLHL14]
Return: 2.13

Enquiry: Identify the reported protein stability index for the following entry. VRLQERTSGGLLSEAPNEKLFFVD [NOP53]
Return: 3.5

Enquiry: Output protein stability index of GLRKRIATLFFHYIKTPLFNPEVA [IQUB]
Return: 2.12

Enquiry: Answer with the recorded protein stability index for the sequence listed here: EEPQWVPDKECRRCMQCDAKFDFL [ZFYVE21]
Return: 2.85

###

# Experiment Summary: protein stability index of a GFP-peptide fusion (GPS, HEK-293T) (PSI 1-6); higher = more stable
# Conditions: treatment: DMSO; c terminus: a fixed tail appended
Observation Type: protein stability index
Please state the value as a number alone, without comment.

Enquiry: Please look at this sequence and report its protein stability index: IAIARLRGSDLKVLEVTEESIDFD [FBXO33]
Return: 2.73

Enquiry: Look up and state reported protein stability index for WFLVPISSVICNDITAYLFGFFFG [CDS1]
Return: 2.75

Enquiry: Respond only with protein stability index recorded for ELLTCHSAEYVGHLRATEKMKTRE [HDAC6]
Return: 3.82

Enquiry: Dear colleague, please send me the reported protein stability index for QVLNETRSQYEALVETNRREVEQW [KRT34] when you can.
Return: 4.3

###

# Experiment Summary: protein stability index of a GFP-peptide fusion (GPS, HEK-293T) (PSI 1-6); higher = more stable
# Conditions: treatment: MLN4924 1 uM, 8 h; c terminus: a fixed tail appended
Observation Type: protein stability index
I'd appreciate a reply containing only the number, no unit.

Some sequences with recorded protein stability index:
NHLQTHDPNKMAFGCEECGKKYNT [PLAGL1] ... 4.77
NVPRICGVCGDRATGFHFNAMTCE [VDR] ... 2.73
TMTSSQSMNFSMMSTNTVGLGLPM [CLINT1] ... 2.68
LIQNEYRNGGSLADAISENYRIMS [WEE1] ... 2.5
ARLAADDFRVKYETELAMRQSVEN [KRT18] ... 4.44

Enquiry: Dear colleague, please send me the reported protein stability index for TCIDMDWKVLTWLRYTLWIPLYPL [HACD3] when you can.
Return: 3.29

Enquiry: Please report the measured protein stability index for PNCFRKDPDINMHPFFFALGKILS [FADS1]
Return: 2.33

###

# Experiment Summary: protein stability index of a GFP-peptide fusion (GPS, HEK-293T) (PSI 1-6); higher = more stable
# Conditions: treatment: DMSO; c terminus: a fixed tail appended
Recorded protein stability index values for a group of sequences are listed next.

LGIPKSTTSDIPHMLNQVESKVKD [FAM98B] ... 5.04

The record that follows has no protein stability index shown yet.
Enquiry: In one line, give reported protein stability index of the entry GSQIHDQFILRVSPDLEWHAACLK [ISL2] .
Return: 2.3

###

# Experiment Summary: protein stability index of a GFP-peptide fusion (GPS, HEK-293T) (PSI 1-6); higher = more stable
# Conditions: treatment: MLN4924 1 uM, 8 h; c terminus: a fixed tail appended
Observation Type: protein stability index
Simply state the number, no unit and no words.

QIDAVGSKLKMLERKGWLAPSPGV [PKD2L1] ... 3.17
GGSELGGWSLGRWTHDGIDINNNF [CPXM2] ... 2.64
AIFWIVFLLLIVFYTAITKKIFKS [P2RY14] ... 2.27

Enquiry: Respond only with protein stability index recorded for RSSPDDLKALTRNVNRLNESFRDL [SCARA5]
Return: 3.88

Enquiry: Please indicate protein stability index recorded for YAVLAAEPELQVGIDIMKTSFPGR [AASDHPPT]
Return: 2.73

Enquiry: Check the records and state protein stability index for RPNSRHTPSFSGDSSSSCSDHCIT [VDR]
Return: 4.45

Enquiry: Name the recorded protein stability index of the sequence listed here: SQPGNAVIDKETIDLLAFTSVAEL [SDE2]
Return: 3.46

Enquiry: For the sequence KDPSAIGKKQVPCFASMLTKKLHF [CASP6] , give its measured protein stability index value.
Return: 2.36

Enquiry: Check the records and state protein stability index for DATLSLKQTILDKEEKQRRNVAKN [TTC32]
Return: 4.91

Enquiry: Look up and state reported protein stability index for PTKSHSFRAMCQNGKLVYPSCEEK [CFHR2]
Return: 4.25

###

# Experiment Summary: protein stability index of a GFP-peptide fusion (GPS, HEK-293T) (PSI 1-6); higher = more stable
# Conditions: treatment: DMSO; c terminus: a fixed tail appended
Observation Type: protein stability index
Reply briefly: the number, and no unit.

Recorded protein stability index, per entry:
LTMTFPAGIVRVFSGTPPPPVLSF [FCHO1] ... 2.92
YLLDYPNNLLSAPPPDVTQLTPPS [ANKRD17] ... 3.23

Enquiry: Tell me its protein stability index given TPLASSTDHQTPPTSPVQGTTPQI [HDAC6] as the entry.
Return: 5.17

Enquiry: Recall and state the measured protein stability index for NAAHSLLSTNDKTIKLWKITERDK [PPP2R2C] .
Return: 3.68

Enquiry: Annotate the sequence DEISDHAKVLTLSDDLERTIEERV [EIF5] with its measured protein stability index.
Return: 5.16

Enquiry: Given the sequence NSMPVDNRNHNEGMVTRCIIEVLS [CHGB] , write its reported protein stability index.
Return: 2.77
